System: Botrytis cinerea
Assay: Test E: tomato botrytis, preventive spray on tomato seedlings
Settings: 40 ppm (marked *); 100 = 100% disease control, 0 = no control
Marks after values point to notes of the source that are not given here.
MEASUREMENT_TYPE: Test E disease control rating

COMPOUND	MEASUREMENT_TYPE	OBSERVED_MEASUREMENT
O=c1c(-n2cccn2)nc(Cl)c(-c2c(F)cccc2F)n1-c1ccc(F)cc1	Test E disease control rating	99* %
Cc1cccc(-n2c(-c3c(F)cccc3F)c(Cl)nc(-n3ccc(C)n3)c2=O)c1	Test E disease control rating	99* %
O=c1c(-n2cccn2)nc(Cl)c(-c2c(F)cc(F)cc2F)n1Cc1ccccc1C(F)(F)F	Test E disease control rating	90* %
CSCC(C)n1c(-c2c(F)cccc2F)c(Cl)nc(-n2ccc(C)n2)c1=O (stereo not shown)	Test E disease control rating	99* %
O=c1c(-n2cccn2)nc(Cl)c(-c2c(F)cc(F)cc2F)n1Cc1ccc(C(F)(F)F)cc1	Test E disease control rating	0* %
Cc1cc(C)c(-c2c(Cl)nc(-n3cccn3)c(=O)n2CC(C)C)c(C)c1	Test E disease control rating	94* %
O=c1c(-n2cccn2)nc(Cl)c(-c2c(F)cccc2F)n1Cc1ccccc1F	Test E disease control rating	99* %
Cc1ccn(-c2nc(Cl)c(-c3c(F)cc(F)cc3F)n(-c3ccccc3Cl)c2=O)n1	Test E disease control rating	99* %
CC[C@H](C)Cn1c(-c2ccc(F)cc2Cl)c(Cl)nc(-n2cccn2)c1=O	Test E disease control rating	100* %
Cc1ccn(-c2nc(Cl)c(-c3c(F)cccc3F)n(Cc3ccccc3)c2=O)n1	Test E disease control rating	99* %
Cc1ccn(-c2nc(Cl)c(-c3c(F)cc(F)cc3F)n(-c3cc(F)c(F)c(F)c3)c2=O)n1	Test E disease control rating	99* %
Cc1ccn(-c2nc(Cl)c(-c3c(F)cccc3F)n(-c3ccc(F)cc3F)c2=O)n1	Test E disease control rating	99* %
O=c1c(-n2cccn2)nc(Cl)c(-c2c(F)cccc2F)n1CCBr	Test E disease control rating	85* %
Cc1ccn(-c2nc(Cl)c(-c3c(F)cc(F)cc3F)n(-c3cccc(F)c3F)c2=O)n1	Test E disease control rating	99* %
CCCCn1c(-c2ccc(F)cc2Cl)c(Cl)nc(-n2ccc(C)n2)c1=O	Test E disease control rating	100* %
O=c1c(-n2cccn2)nc(Cl)c(-c2c(F)cc(F)cc2F)n1-c1cccc(Cl)c1	Test E disease control rating	100* %

====

Entries and their measured Test K disease control rating follow.
System: Puccinia recondita f. sp. tritici
Test: Test K: wheat leaf rust, preventive spray on wheat seedlings
Details: 40 ppm (*)
Marks after values point to notes of the source that are not given here.
MEASUREMENT_TYPE: Test K disease control rating

CHEM_SMILES	OBSERVED_MEASUREMENT
CC(C)Cn1c(-c2cccc3ccccc23)c(Cl)nc(-n2cncn2)c1=O	0* %
COC(=O)Cn1c(-c2c(F)cccc2F)c(Cl)nc(-n2cncn2)c1=O	0* %
CC(C)Cn1c(-c2c(F)cccc2F)c(Cl)nc(-c2cccnc2)c1=O	0* %
CC(C)Cn1c(-c2ccc(C(F)(F)F)cc2F)c(Cl)nc(-n2cncn2)c1=O	0* %
CCCCn1c(-c2c(F)cc(F)cc2F)c(Cl)nc(N2CCC=N2)c1=O	82* %
CC(C)Cn1c(-c2ccsc2)c(Cl)nc(-n2cccn2)c1=O	0* %
CC(C)Cn1c(Cc2ccccc2)c(Cl)nc(-n2cccn2)c1=O	0* %
CCC(CC)Cn1c(-c2c(F)cccc2F)c(Cl)nc(-n2cccn2)c1=O	99* %

The measured values listed here are drawn from patent US20080194585A1.
